# Assay info: solvent given as SMILES
# Condition context: in C1CCC2CCCCC2C1
A collection of molecules and their measured solvation free energy, 298 K
Expressed in kcal/mol, but write only the number.

Recorded solvation free energy, 298 K of `C=CCCCCC` , please.
-4.38

Recorded solvation free energy, 298 K of `C#CC` , please.
-1.49

* * *

# Assay info: solvent given as SMILES
# Condition context: in CCCCCCC
// bucketize solvation free energy, 298 K: low value = under -6 kcal/mol, medium value = from -6 kcal/mol up to -4 kcal/mol, high value = -4 kcal/mol and over

C=C :: high value
Cc1ccccc1C :: medium value
Cc1ccc(C)cc1 :: medium value

// bin(item) where item = `c1ccc2c(c1)-c1cccc3cccc-2c13`
low value

// bin(item) where item = `CCBr`
high value

// bin(item) where item = `COC(C)=O`
high value

// bin(item) where item = `C=CCCCCC`
medium value

// bin(item) where item = `O=[N+]([O-])c1ccc(O)c([N+](=O)[O-])c1`
low value

// bin(item) where item = `CCCCc1ccccc1`
low value

* * *

A collection of compounds and their measured solvation free energy, 298 K
# Assay info: solvent given as SMILES
# Condition context: in CO
Expressed in kcal/mol, but write only the number.

In the examples that follow, each entry is paired with its recorded solvation free energy, 298 K.
C=CCC :: -1.83
CCCCCCCCCCCCCCCCCCCCCCCC :: -12.3
O=C(O)c1ccc([N+](=O)[O-])cc1 :: -12.5

Recorded solvation free energy, 298 K of OC(F)(C(F)F)C(F)(F)F (centres undefined) , please.
-6.53

Recorded solvation free energy, 298 K of `ClC(Cl)(Cl)Cl` , please.
-3.66

Recorded solvation free energy, 298 K of `O=C=O` , please.
-0.85

* * *

A collection of molecules and their measured solvation free energy, 298 K
# Assay info: solvent given as SMILES
# Condition context: in O
Expressed in kcal/mol, but write only the number.

In the examples that follow, each entry is paired with its recorded solvation free energy, 298 K.
COS(C)(=O)=O :: -4.87
Clc1ccc(-c2ccc(Cl)c(Cl)c2)cc1Cl :: -3.62
O=C(O)c1ccc(CCl)cc1 :: -9.22
CCCCC(C)CCC (configuration not stated) :: 3.57

Recorded solvation free energy, 298 K of `Cc1ccc(C(C)C)c(O)c1` , please.
-5.81

Recorded solvation free energy, 298 K of `CCC(C)(C)O` , please.
-4.43

Recorded solvation free energy, 298 K of `Brc1ccccc1` , please.
-1.46

Recorded solvation free energy, 298 K of `CCCCOC(=O)c1ccccc1C(=O)OCc1ccccc1` , please.
-9.55

Recorded solvation free energy, 298 K of `CN` , please.
-4.56

Recorded solvation free energy, 298 K of `CCBr` , please.
-0.74

* * *

# Assay info: solvent given as SMILES
# Condition context: in ClC(Cl)(Cl)Cl
Endpoint: solvation free energy, 298 K (kcal/mol)
Expressed in kcal/mol, but write only the number.

In the examples that follow, each entry is paired with its recorded solvation free energy, 298 K.
c1ccc2c(c1)Cc1ccccc1O2 :: -10.8
CCCO :: -3.53

Now for the compound whose solvation free energy, 298 K we want.
Recorded solvation free energy, 298 K of `C=CCC` , please.
-2.5
